Each record here notes measured protein stability index.
B1: HESX1 (parent)
chain: HVPNPPSGISFPSVVDHPMPEERA

# Variants of: B1
# assay_details: protein stability index of a GFP-peptide fusion (GPS, HEK-293T) (PSI 1-6); higher = more stable;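 further: lentivirally expressed fusions sorted by FACS into six bins by GFP to DsRed ratio, PSI derived from sequencing read proportions per bin multiplied by bin number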
# condition_label: c terminus: a fixed tail appended
Form field (numeric): enter value without unit.

{"variant_annotation": "N4T", "observed_property": "protein stability index", "data_value": 2.22}
{"variant_annotation": "P3F", "observed_property": "protein stability index", "data_value": 3.85}
{"variant_annotation": "P20D", "observed_property": "protein stability index", "data_value": 2.98}

[in] Return value of protein stability index for input S10W , no commentary.
[out] 1.97

[in] Return value of protein stability index for input S10N , no commentary.
[out] 3.5

Data origin, for the record: the supplement of paper PMC10567573
